Hey, just so you know, these numbers are from patent US20240132624A1.

Molecular target: T1, human FcRn/b2M (human, UniProt P61769 21-119, biotinylated)
T1 construct: bought recombinant biotinylated protein (ACRO FCM-H82W4 or Immunitrack ITF01); also called hFcRn; hFcRn/hb2M
T1 sequence (chain, as listed by the source limits assumed, chain 1 of 2): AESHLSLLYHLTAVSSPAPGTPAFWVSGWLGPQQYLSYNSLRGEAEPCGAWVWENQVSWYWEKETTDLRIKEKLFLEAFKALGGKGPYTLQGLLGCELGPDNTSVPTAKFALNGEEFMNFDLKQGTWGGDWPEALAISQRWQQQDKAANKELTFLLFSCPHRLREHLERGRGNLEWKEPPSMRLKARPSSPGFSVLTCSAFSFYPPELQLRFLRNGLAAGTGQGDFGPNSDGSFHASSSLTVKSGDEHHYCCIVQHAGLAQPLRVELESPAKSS
T1 sequence (P61769 21-119 limits assumed, chain 2 of 2): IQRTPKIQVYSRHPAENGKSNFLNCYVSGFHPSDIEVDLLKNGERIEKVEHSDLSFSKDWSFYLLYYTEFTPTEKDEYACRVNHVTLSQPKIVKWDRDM
Assay: SPR pH 7.4;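 note: surface plasmon resonance kinetics, periplasmic extracts diluted 1:10 flowed over immobilized target at 25 °C, 120 s association then 600–3600 s dissociation, buffer with 150 mM NaCl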
Recorded Endpoint: koff
Give the figure together with its unit, number first.

Binder | koff
T0263018B11 S101Q (VHH, name in Kabat numbering, FLAG3-His6 tagged) VHH: EVQLVESGGGVVQPGGSLRLSCAASGFTFSSYAMYWVRQAPGKGLEWVSAISSGGGSTDYADSVKGRFTISRDNSKNTLYLQMNSLRPEDTALYYCAADTLYTSLTWYQYWGQGTLVTVSS | 0.025 s⁻¹
T0263018B11 S56V (VHH, name in Kabat numbering, FLAG3-His6 tagged) VHH: EVQLVESGGGVVQPGGSLRLSCAASGFTFSSYAMYWVRQAPGKGLEWVSAISSGGGVTDYADSVKGRFTISRDNSKNTLYLQMNSLRPEDTALYYCAADTLYTSLTWYSYWGQGTLVTVSS | 0.044 s⁻¹

// next item, koff requested
Task item: Param item = T0263018B11 G54L (VHH, name in Kabat numbering, FLAG3-His6 tagged) VHH: EVQLVESGGGVVQPGGSLRLSCAASGFTFSSYAMYWVRQAPGKGLEWVSAISSGLGSTDYADSVKGRFTISRDNSKNTLYLQMNSLRPEDTALYYCAADTLYTSLTWYSYWGQGTLVTVSS ; retrieve measured koff.
Reply: 0.041 s⁻¹
